# TARGET_DESC: Ybr033w (UniProt P38073)
# Sequence: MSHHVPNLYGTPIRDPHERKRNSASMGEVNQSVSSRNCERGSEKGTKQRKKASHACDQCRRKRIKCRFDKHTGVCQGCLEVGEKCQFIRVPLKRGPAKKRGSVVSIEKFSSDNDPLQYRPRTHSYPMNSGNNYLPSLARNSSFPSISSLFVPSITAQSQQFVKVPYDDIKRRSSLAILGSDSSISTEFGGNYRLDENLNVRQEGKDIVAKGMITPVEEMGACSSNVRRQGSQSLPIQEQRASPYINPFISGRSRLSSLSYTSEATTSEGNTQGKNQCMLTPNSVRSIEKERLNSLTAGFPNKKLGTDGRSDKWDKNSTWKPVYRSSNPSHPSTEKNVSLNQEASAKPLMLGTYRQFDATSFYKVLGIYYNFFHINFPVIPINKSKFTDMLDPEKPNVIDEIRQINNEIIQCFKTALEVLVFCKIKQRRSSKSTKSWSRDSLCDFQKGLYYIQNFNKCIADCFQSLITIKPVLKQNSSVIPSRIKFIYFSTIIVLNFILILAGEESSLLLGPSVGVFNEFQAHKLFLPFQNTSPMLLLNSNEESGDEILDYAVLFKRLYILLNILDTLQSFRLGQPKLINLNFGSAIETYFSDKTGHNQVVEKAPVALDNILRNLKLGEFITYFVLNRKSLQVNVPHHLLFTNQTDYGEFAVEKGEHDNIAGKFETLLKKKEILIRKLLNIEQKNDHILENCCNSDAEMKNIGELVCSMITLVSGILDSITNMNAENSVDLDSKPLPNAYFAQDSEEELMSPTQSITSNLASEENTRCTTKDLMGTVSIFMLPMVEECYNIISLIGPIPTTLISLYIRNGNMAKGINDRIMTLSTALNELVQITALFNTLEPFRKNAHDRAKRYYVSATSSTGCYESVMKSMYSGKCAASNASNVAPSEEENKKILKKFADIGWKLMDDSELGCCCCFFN
# PROTOCOL_DETAILS: PBM E-score (8-mer binding enrichment) (E-score (-0.5 to 0.5)); higher = stronger / more preferred TF binding
# RUN_PARAMETERS: protein concentration: 200 nM; construct: GST-full length
In all, about 33,000 sequences were measured (“E-score (-0.5 to 0.5)”: median about -0.012, highest 2% from about 0.29 on). Shown is part of a subset that was picked to be rich in the highest values.
MEASURE_NAME: PBM E-score
The reply should be a number, written without any unit.

Here's what some known entries look like.
AATTCCGC : 0.172
AGTAAGAC : -0.00585
AAACTTCG : 0.0988
GAATCCGA : -0.108
GCGGGACA : -0.243
CCTTACCA : -0.00851
AATCTTCC : 0.411
AATTCCCA : 0.171
AATCTTCG : 0.0477
AATTCCGA : 0.296

Now for another entry.
So for TAATCCGA , the logged PBM E-score turned out to be 0.326

* * *

# TARGET_DESC: Ybr033w (UniProt P38073)
# Sequence: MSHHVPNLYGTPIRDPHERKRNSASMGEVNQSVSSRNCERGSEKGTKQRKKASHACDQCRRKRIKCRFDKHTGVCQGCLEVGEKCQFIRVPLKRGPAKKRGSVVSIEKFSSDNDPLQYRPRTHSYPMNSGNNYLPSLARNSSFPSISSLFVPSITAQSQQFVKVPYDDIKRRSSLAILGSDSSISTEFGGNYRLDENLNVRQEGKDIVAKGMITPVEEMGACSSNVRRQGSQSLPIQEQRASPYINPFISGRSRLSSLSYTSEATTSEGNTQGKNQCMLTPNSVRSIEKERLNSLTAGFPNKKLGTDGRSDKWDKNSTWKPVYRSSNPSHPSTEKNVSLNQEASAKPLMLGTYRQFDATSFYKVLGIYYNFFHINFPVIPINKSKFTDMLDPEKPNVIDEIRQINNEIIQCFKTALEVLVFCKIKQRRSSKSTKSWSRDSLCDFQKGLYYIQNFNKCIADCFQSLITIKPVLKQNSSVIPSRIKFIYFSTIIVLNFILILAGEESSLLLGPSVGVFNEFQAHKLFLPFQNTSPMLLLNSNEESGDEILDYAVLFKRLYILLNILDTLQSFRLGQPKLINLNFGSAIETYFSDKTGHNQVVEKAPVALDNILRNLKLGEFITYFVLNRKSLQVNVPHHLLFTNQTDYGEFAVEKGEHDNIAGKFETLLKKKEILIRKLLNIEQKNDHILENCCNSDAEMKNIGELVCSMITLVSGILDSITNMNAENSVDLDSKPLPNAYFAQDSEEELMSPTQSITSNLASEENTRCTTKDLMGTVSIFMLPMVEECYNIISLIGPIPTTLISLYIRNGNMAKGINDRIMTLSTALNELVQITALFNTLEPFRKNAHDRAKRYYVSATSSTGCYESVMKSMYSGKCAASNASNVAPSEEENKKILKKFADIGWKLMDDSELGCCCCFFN
# PROTOCOL_DETAILS: PBM E-score (8-mer binding enrichment) (E-score (-0.5 to 0.5)); higher = stronger / more preferred TF binding
# RUN_PARAMETERS: protein concentration: 200 nM; construct: GST-full length
The full ranking holds about 33,000 sequences; the median of “E-score (-0.5 to 0.5)” is about -0.012, and the highest 2% start at about 0.29. This is one part of a sample in which the highest values are shown more often than they occur.
MEASURE_NAME: PBM E-score
The reply should be a number, written without any unit.

Here's what some known entries look like.
CTTACTAA : 0.143
ATATCCAC : 0.145
CAAATATA : 0.281
ATAGGTGG : -0.108
TAAATATA : 0.353
TTCAAAAA : 0.239
AGACAGGA : 0.246
GATCTAGA : 0.0239

So for CCACGAGG , the logged PBM E-score turned out to be -0.0481

So for GTGCCACA , the logged PBM E-score turned out to be -0.302

So for CCTGCACG , the logged PBM E-score turned out to be -0.159

So for ACTCAGAA , the logged PBM E-score turned out to be 0.11

So for CATGTAAG , the logged PBM E-score turned out to be -0.0133

So for AAGTCTAT , the logged PBM E-score turned out to be -0.00931

* * *

# TARGET_DESC: Ybr033w (UniProt P38073)
# Sequence: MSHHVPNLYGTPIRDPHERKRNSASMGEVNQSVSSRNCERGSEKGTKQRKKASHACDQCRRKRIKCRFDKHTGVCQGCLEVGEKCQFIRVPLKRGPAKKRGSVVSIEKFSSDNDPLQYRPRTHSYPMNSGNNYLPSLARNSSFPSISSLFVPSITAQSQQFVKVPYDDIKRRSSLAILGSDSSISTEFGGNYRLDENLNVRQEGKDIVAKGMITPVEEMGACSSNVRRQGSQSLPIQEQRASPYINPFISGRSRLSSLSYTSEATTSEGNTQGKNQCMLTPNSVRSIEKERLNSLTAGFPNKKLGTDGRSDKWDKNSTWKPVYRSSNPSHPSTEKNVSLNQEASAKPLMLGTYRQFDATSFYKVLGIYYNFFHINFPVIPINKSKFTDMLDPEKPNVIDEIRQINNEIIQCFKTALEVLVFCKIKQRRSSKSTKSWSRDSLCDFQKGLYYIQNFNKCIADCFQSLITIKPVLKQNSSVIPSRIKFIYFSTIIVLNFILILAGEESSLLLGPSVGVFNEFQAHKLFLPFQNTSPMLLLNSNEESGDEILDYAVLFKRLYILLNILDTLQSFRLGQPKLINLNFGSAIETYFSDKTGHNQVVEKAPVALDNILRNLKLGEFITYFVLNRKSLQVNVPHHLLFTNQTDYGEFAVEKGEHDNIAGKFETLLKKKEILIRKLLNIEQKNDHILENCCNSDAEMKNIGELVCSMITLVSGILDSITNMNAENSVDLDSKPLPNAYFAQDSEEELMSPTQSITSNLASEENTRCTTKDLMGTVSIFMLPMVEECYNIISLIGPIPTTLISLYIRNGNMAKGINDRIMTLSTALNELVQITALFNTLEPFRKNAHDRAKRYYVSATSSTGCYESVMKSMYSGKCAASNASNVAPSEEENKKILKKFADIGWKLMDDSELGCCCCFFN
# PROTOCOL_DETAILS: PBM E-score (8-mer binding enrichment) (E-score (-0.5 to 0.5)); higher = stronger / more preferred TF binding
# RUN_PARAMETERS: protein concentration: 200 nM; construct: GST-full length
In all, about 33,000 sequences were measured (“E-score (-0.5 to 0.5)”: median about -0.012, highest 2% from about 0.29 on). Shown is part of a subset that was picked to be rich in the highest values.
Rule: PBM E-score of -0.09 or more gives met; anything lower gives not met.

Reference set (3 entries):
AGGATAAA : met
AAGATAAG : met
CCAGGAAC : not met

# check: PBM E-score of CCTAGCCG is greater than or equal to -0.09
not met

# check: PBM E-score of AGGATAAG is greater than or equal to -0.09
met

# check: PBM E-score of ACTAGGGA is greater than or equal to -0.09
not met

# check: PBM E-score of AAGATAAT is greater than or equal to -0.09
met

# check: PBM E-score of AACCATAG is greater than or equal to -0.09
met

# check: PBM E-score of ATCTAAGC is greater than or equal to -0.09
met

# check: PBM E-score of CCGTCGCC is greater than or equal to -0.09
not met

From: the supplement of paper PMC3334620
